pKd overview
- TARGET DESC: T1, human CD3e/g (human, UniProt P07766 23-126; P09693 23-116)
- T1 construct: Bought soluble protein; also called hCD3e/g; human CD3e/g (Acro CDD-C52W4)
- T1 sequence (P07766 23-126, chain 1 of 2): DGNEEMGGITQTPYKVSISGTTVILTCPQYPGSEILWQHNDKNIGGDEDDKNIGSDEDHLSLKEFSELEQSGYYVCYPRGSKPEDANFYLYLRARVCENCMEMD
- T1 sequence (P09693 23-116, chain 2 of 2): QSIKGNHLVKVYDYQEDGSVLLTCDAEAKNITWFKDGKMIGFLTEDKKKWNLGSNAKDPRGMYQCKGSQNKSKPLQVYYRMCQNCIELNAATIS
- EXPERIMENT DESCRIPTION: SPR (Carterra LSA), mAb on chip
For clarity, pKd is expressed as the negative log10 of concentration in mol/L.

// solved cases for pKd follow
binder="mAb 273 (antibody, V domains shown, VH and VL only) VH: EVQLVESGGGLVQPGESLKLSCTASGFTFSVSAIHWVRQASGKGLEWVGRIRSKANSYATAYVASVKGRFTLSRDDSKNTAYLQMNSLKTEDTAVYYCSSYYFVSGTYYNHWGQGTLVTVSS VL: DIQMTQSPSSLSASVGDRVTITCRASQGIRYDLGWYQQKPGRAPKRLIHSVSSLQSGVPSRFSGSGSGTEFTLTISSLQPEDFATYYCLQHNVNPCTFGQGTKLEIK" assay_metric=pKd numeric_result=7.34
binder="mAb 320 (antibody, V domains shown, VH and VL only) VH: QVQLVESGGGVVQPGRSLRLSCAASGFTFRSYGMHWVRQAPGKGLEWVAIIWYDGSKKYYADSVKGRFTISRDNSKNILYLQMNSLRAEDTAVYYCARQEFNWNDGGYYYMDVWGKGTTVTVSS VL: DIQLTQSPSFLSASVGDRVTITCRASQGISSYLDWCQQKPGKAPKLLIYAASTLQSGVPSRFSGSGSGTEFTLTISSLQPEDFATYYCQQLDNYPPTFGGGTKVEIK" assay_metric=pKd numeric_result=9.16
binder="mAb 212 (antibody, V domains shown, VH and VL only) VH: EVQLLESGGGLVQPGGSLRLSCAASGFTFSNYAMNWVRQAPGKGLEWVSAISGSRSNTYYADSVKGRFTISRDNSKNTLYLQMNSLRAEDTGVYYCAKGAYSKYPYYYYMDVWGKGTTVTVSS VL: EIVMTQSPATLSLSPGERATLSCRASQSVSSSYLSWYQQKPGQAPRLLIYGASTRAIGIPARFSGSGSGTDFTLTISSLQAEDFAVYYCQQDDNLPWTFGQGTKVEIK" assay_metric=pKd numeric_result=7.66
binder="mAb 252 (antibody, V domains shown, VH and VL only) VH: EVQILESGGGLVQPGGSLRLSCVASGFTFRSYVMSWVRRAPGRGLEWVSGISTSGGNTYYADSVKGRFTISRDNSKNTLFLQMNGLRAEDTAVYYCAKLFSYYYYFMDVWGKGTTVTVSS VL: SYELTQPLSVSVALGQTARITCGGNNIGSKDVHWYQQKPGQAPVLVIYRDSNRPSGIPERFSGSNSGNTATLTISGAQAGDEADYYCQVWDRRTAVFGGGTQLTAL" assay_metric=pKd numeric_result=7.89

Now look at this one.
Input: Find the measured pKd of mAb 50 (antibody, V domains shown, VH and VL only) VH: QAQLVQSGSELKKPGASVKVSCKASGYTFTRHAMNWVRQAPGQGLEWMGWINTNTGNPTYAQGFTGRFVFSLDTSVTTAYLQISSLKAEDTAVYYCAREGDYDFWSGFFNFDYWGQGTLVTVSS VL: DIQMTQSPSSLSASVGDRVTITCRASQGIRNDLGWFQQKPGKAPTRLIYAASSLQSGVPSRFSGSGSGAEFTLTISSLQPEDFATYYCLQHNSYPRTFGQGTKVEIK and report it.
Output: 7.46
